As shown below, each of these molecules has a reported EC50 value.
target_entity: human apelin receptor (APJ, AGTRL-one, APLNR) (Homo sapiens)
assay_remarks: cell-based cAMP TR-FRET assay of apelin receptor activation
condition_parameters: CHO cells expressing human APJ, forskolin-stimulated cAMP, 0.5 h incubation, 50% of control (apelin-13, 1 nM) response; read-out: Potency Category (EC50)

>  <molecule>
CCc1ccc(OC(C(=O)Nc2nc3cc(OC)c(OC)cc3s2)c2ccc(S(=O)(=O)CC)cc2)cc1 (stereo not drawn)

>  <experimental_readout>
EC50

>  <result>
200 to 500 nM

$$$$
>  <molecule>
CCCCOc1ccc(OC(C(=O)Nc2nc3cc(OC)c(OC)cc3s2)c2ccc(S(=O)(=O)CC)cc2)cc1 (stereo not drawn)

>  <experimental_readout>
EC50

>  <result>
> 500 nM

$$$$

Report its EC50 with human apelin receptor (APJ, AGTRL-one, APLNR) (Homo sapiens) as the test system: CCS(=O)(=O)c1ccc(C(Oc2ccc(OC)cc2)C(=O)Nc2nc3ccc(N4CCN(C)CC4)cc3s2)cc1 (stereo not drawn)
> 500 nM

Report its EC50 with human apelin receptor (APJ, AGTRL-one, APLNR) (Homo sapiens) as the test system: CCS(=O)(=O)c1ccc(C(OC2CCCCC2)C(=O)Nc2nc3cc(OC)c(OC)cc3s2)cc1 (stereo not drawn)
> 500 nM

Report its EC50 with human apelin receptor (APJ, AGTRL-one, APLNR) (Homo sapiens) as the test system: CCS(=O)(=O)c1ccc(C(OCC=C(C)C)C(=O)Nc2nc3cc(OC)c(OC)cc3s2)cc1 (stereo not drawn)
> 500 nM

Report its EC50 with human apelin receptor (APJ, AGTRL-one, APLNR) (Homo sapiens) as the test system: COc1cc2nc(NC(=O)C(Oc3ccc(C#N)cc3)c3ccc(C(=O)N4CCNCC4)cc3)sc2cc1OC (stereo not drawn)
200 to 500 nM

Report its EC50 with human apelin receptor (APJ, AGTRL-one, APLNR) (Homo sapiens) as the test system: COc1cc2nc(NC(=O)C(Oc3ccc(C#N)cc3)c3cccc(Br)c3)sc2cc1OC (stereo not drawn)
> 500 nM

Report its EC50 with human apelin receptor (APJ, AGTRL-one, APLNR) (Homo sapiens) as the test system: COc1ccc(OC(C(=O)Nc2nc3cc(OC)c(OC)cc3s2)c2ccc(C#N)cc2)cc1 (stereo not drawn)
< 50 nM

----------
target_entity: UniProt P35414
Sequence (P35414 1-380): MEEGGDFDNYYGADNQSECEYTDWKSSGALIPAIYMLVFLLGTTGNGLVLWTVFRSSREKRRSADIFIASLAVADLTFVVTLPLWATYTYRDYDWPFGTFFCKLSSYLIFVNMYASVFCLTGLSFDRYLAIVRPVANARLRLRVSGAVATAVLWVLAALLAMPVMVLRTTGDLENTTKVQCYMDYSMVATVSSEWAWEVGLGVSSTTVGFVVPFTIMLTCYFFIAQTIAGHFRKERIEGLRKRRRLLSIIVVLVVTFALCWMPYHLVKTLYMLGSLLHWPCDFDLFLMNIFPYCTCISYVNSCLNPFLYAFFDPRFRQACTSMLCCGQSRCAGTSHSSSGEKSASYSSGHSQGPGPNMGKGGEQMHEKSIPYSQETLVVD
assay_remarks: cell-based cAMP TR-FRET assay of apelin receptor activation
condition_parameters: CHO cells expressing human APJ, forskolin-stimulated cAMP, 0.5 h incubation, 50% of control (apelin-13, 1 nM) response; read-out: Potency Category (EC50)
Method: The assays disclosed herein were performed using cell lines from DiscoveX, Inc. Biological activity was determined to the cell—based assay. This assay detects activation of the receptor by reporting on intracellular cyclic adenosine monophosphate (cAMP) level. […] At the end of the incubation, cells were lysed to stop APJ signaling and cAMP was quantified using a commercially available competitive immunoassay kit that applies homogenous time—resolved florescence energy transfer (TR—FRET). […]
pEC50: −log10 of the molar value.
experimental_readout: pEC50

>  <compound>
CCS(=O)(=O)c1ccc(C(Nc2ccc(C#N)cc2)C(=O)Nc2nc3cc(OC)c(OC)cc3s2)cc1 (stereo not drawn)

>  <pEC50>
> 7.30

$$$$
>  <compound>
COc1cc2nc(NC(=O)Cc3ccc(S(=O)(=O)N(C)C)cc3)sc2cc1OC

>  <pEC50>
< 6.30

$$$$
>  <compound>
COc1cc2nc(NC(=O)Cc3cccc(C(=O)N(C)C)c3)sc2cc1OC

>  <pEC50>
< 6.30

$$$$
>  <compound>
CCS(=O)(=O)c1ccc(C(Oc2ccc(C#N)cc2)C(=O)Nc2cc3cc(OC)c(OC)cc3[nH]2)cc1 (stereo not drawn)

>  <pEC50>
< 6.30

$$$$
>  <compound>
CCS(=O)(=O)c1ccc(C(Oc2ccc(C#N)cc2)C(=O)Nc2nc3ccc(OC)cc3s2)cc1 (stereo not drawn)

>  <pEC50>
< 6.30

$$$$
>  <compound>
COc1cc2nc(NC(=O)C(Oc3ccc(C#N)cc3)c3ccc(S(=O)(=O)c4ccc(Cl)cc4)cc3)sc2cc1OC (stereo not drawn)

>  <pEC50>
6.30 to 6.70

$$$$
>  <compound>
CCS(=O)(=O)c1ccc(C(Oc2ccc(C#N)cc2)C(=O)Nc2nc3cc(OC)c(C)cc3s2)cc1 (stereo not drawn)

>  <pEC50>
6.30 to 6.70

$$$$
>  <compound>
COc1cc2nc(NC(=O)C(Oc3ccc(C(=O)N4CCN(C)CC4)cc3)c3ccc(C#N)cc3)sc2cc1OC (stereo not drawn)

>  <pEC50>
7.00 to 7.30

$$$$
>  <compound>
COc1ccc(S(=O)(=O)c2ccccc2C(Oc2ccc(C#N)cc2)C(=O)Nc2nc3cc(OC)c(OC)cc3s2)cc1 (stereo not drawn)

>  <pEC50>
6.70 to 7.00

$$$$
>  <compound>
COc1cc2nc(NC(=O)C(Oc3ccc(C#N)cc3)c3ccc(C(=O)N4CCN(C)CC4)cc3)oc2cc1OC (stereo not drawn)

>  <pEC50>
> 7.30

$$$$

Report its pEC50 with UniProt P35414 as the test system: COc1cc2nc(NC(=O)C(Oc3ccc(C(=O)NCCO)cc3)c3ccc(C#N)cc3)sc2cc1OC (stereo not drawn)
6.30 to 6.70

Report its pEC50 with UniProt P35414 as the test system: COCCOc1ccc(C(Oc2ccc(C#N)cc2)C(=O)Nc2nc3cc(OC)c(OC)cc3o2)cc1 (stereo not drawn)
> 7.30

Report its pEC50 with UniProt P35414 as the test system: COc1cc2nc(NC(=O)C(Oc3ccc(C#N)cc3)c3ccc(S(=O)(=O)c4ccc(F)cc4)cc3)sc2cc1OC (stereo not drawn)
6.70 to 7.00

Report its pEC50 with UniProt P35414 as the test system: CCS(=O)(=O)c1ccc(C(Oc2ccc(C#N)cc2)C(=O)Nc2nc3c4c(ccc3s2)OCO4)cc1 (stereo not drawn)
< 6.30

----------
target_entity: human apelin receptor (APJ, AGTRL-one, APLNR) (Homo sapiens)
assay_remarks: cell-based cAMP TR-FRET assay of apelin receptor activation
condition_parameters: CHO cells expressing human APJ, forskolin-stimulated cAMP, 0.5 h incubation, 50% of control (apelin-13, 1 nM) response; read-out: Potency Category (EC50)
pEC50: −log10 of the molar value.
As shown below, each of these molecules has a reported pEC50 value.

Worked cases, pEC50 given:
>  <molecule>
CCS(=O)(=O)c1ccc(C(Oc2ccc(Cl)cc2)C(=O)Nc2nc3cc(OC)c(OC)cc3s2)cc1 (stereo not shown)

>  <pEC50>
6.70 to 7.00

$$$$
>  <molecule>
CCCCS(=O)(=O)c1cccc(C(Oc2ccc(C#N)cc2)C(=O)Nc2nc3cc(OC)c(OC)cc3s2)c1 (stereo not shown)

>  <pEC50>
7.00 to 7.30

$$$$
>  <molecule>
CCS(=O)(=O)c1ccc(C(OCc2ccccc2)C(=O)Nc2nc3cc(OC)c(OC)cc3s2)cc1 (stereo not shown)

>  <pEC50>
< 6.30

$$$$

Let us move to another entry and its pEC50.
Note down pEC50 recorded for COc1cc2nc(NC(=O)C(Oc3ccc(C(=O)NCCN(C)C)cc3)c3ccc(C#N)cc3)sc2cc1OC (stereo not shown)
7.00 to 7.30

----------
target_entity: human apelin receptor (APJ, AGTRL-one, APLNR) (Homo sapiens)
Sequence (P35414 1-380): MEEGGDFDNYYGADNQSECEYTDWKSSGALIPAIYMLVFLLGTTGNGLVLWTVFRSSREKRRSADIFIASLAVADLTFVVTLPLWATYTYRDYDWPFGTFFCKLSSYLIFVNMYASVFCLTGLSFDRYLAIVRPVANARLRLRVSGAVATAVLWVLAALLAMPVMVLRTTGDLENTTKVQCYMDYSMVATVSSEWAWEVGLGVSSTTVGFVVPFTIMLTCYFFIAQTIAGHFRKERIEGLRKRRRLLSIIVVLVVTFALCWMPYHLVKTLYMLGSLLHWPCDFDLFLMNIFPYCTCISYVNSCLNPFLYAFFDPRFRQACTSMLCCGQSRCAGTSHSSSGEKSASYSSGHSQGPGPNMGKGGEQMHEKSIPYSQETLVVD
assay_remarks: cell-based cAMP TR-FRET assay of apelin receptor activation
condition_parameters: CHO cells expressing human APJ, forskolin-stimulated cAMP, 0.5 h incubation, 50% of control (apelin-13, 1 nM) response; read-out: Potency Category (EC50)
pEC50: −log10 of the molar value.
experimental_readout: pEC50

>  <compound>
CCS(=O)(=O)c1ccc(C(Nc2ccccc2OC)C(=O)Nc2nc3cc(OC)c(OC)cc3s2)cc1 (centres unmarked)

>  <experimental_readout>
pEC50

>  <result>
< 6.30

$$$$
>  <compound>
COc1cc2nc(NC(=O)C(Oc3ccc(C#N)cc3)c3ccccc3S(=O)(=O)C(C)C)sc2cc1OC (centres unmarked)

>  <experimental_readout>
pEC50

>  <result>
6.70 to 7.00

$$$$
>  <compound>
CCS(=O)(=O)c1ccc(C(Oc2cccc(C)c2)C(=O)Nc2nc3cc(OC)c(OC)cc3s2)cc1 (centres unmarked)

>  <experimental_readout>
pEC50

>  <result>
< 6.30

$$$$

Note down pEC50 recorded for CCS(=O)(=O)c1ccc(C(OCCCOC)C(=O)Nc2nc3cc(OC)c(OC)cc3s2)cc1 (centres unmarked)
< 6.30

Note down pEC50 recorded for COc1cc2nc(NC(=O)C(Oc3ccc(C#N)cc3)c3ccc(S(=O)(=O)CC4CC4)cc3)sc2cc1OC (centres unmarked)
> 7.30

Note down pEC50 recorded for COCCNS(=O)(=O)c1ccc(C(Oc2ccc(C#N)cc2)C(=O)Nc2nc3cc(OC)c(OC)cc3s2)cc1 (centres unmarked)
6.30 to 6.70

Note down pEC50 recorded for CCS(=O)(=O)c1ccc(C(Oc2ccc(C#N)cc2)C(=O)Nc2nc3ccc(F)c(OC)c3s2)cc1 (centres unmarked)
< 6.30

Note down pEC50 recorded for CCS(=O)(=O)c1ccc(C(OC2CCCC2)C(=O)Nc2nc3cc(OC)c(OC)cc3s2)cc1 (centres unmarked)
< 6.30

Note down pEC50 recorded for COc1cc2nc(NC(=O)C(Oc3ccc(C(=O)N(C)C)cc3)c3ccc(C#N)cc3)sc2cc1OC (centres unmarked)
> 7.30

This collection of values is drawn from patent US12071414B2.
